Where do these numbers come from? They come from patent US20260191863A1.

- method_notes: 13 week toxicology and toxicokinetic study in cynomolgus monkeys
- Assay type: in vivo, cynomolgus monkey
- condition_set: cynomolgus monkey, in vivo, 6 mg/kg, monkey 6 mpk, Day 91; read-out: AUC0-24
measure: AUC(0-t) (ng·h/mL)
Expressed in ng·h/mL, but write only the number.

For reference, reported AUC(0-t) for C=CC(=O)N1C[C@H](Nc2ncnc3[nH]cc([C@H]4CC4(F)F)c23)CC[C@@H]1C stands at 1410

---

- method_notes: Phase 1 multiple ascending dose (MAD) study: pharmacokinetics
- Assay type: in vivo, human
- condition_set: human, plasma, oral, 15 mg, Cohort 2, 15 mg BID, Day 7; read-out: Geometric Mean AUC_0-12
measure: AUC(0-t) (ng·h/mL)
Use ng·h/mL as the unit, but write only the number.

Recorded result, C=CC(=O)N1C[C@H](Nc2ncnc3[nH]cc([C@H]4CC4(F)F)c23)CC[C@@H]1C [Compound I] , AUC(0-t): 109

---

- method_notes: Phase 1 single ascending dose (SAD) study: pharmacokinetics, food effect, formulation bridging
- Assay type: in vivo, human
- condition_set: both sexes, human, in vivo, po, 50 mg, single oral dose 50 mg, capsule, fasted; read-out: T1/2 (converted)
measure: half-life (h)
Write the number in h without appending the unit.

Reported half-life ( C=CC(=O)N1C[C@H](Nc2ncnc3[nH]cc([C@H]4CC4(F)F)c23)CC[C@@H]1C ) = 1.84

---

- method_notes: Phase 1 multiple ascending dose (MAD) study: pharmacokinetics
- Assay type: in vivo, human
- condition_set: human, plasma, oral, 25 mg, Cohort 4, 25 mg BID, Day 7; read-out: Geometric Mean Cmax
measure: Cmax (ng/mL)
Field format: number, assumed ng/mL, no unit text.

// C=CC(=O)N1C[C@H](Nc2ncnc3[nH]cc([C@H]4CC4(F)F)c23)CC[C@@H]1C : Cmax value = 89.6

---

- method_notes: Phase 1 single ascending dose (SAD) study: pharmacokinetics, food effect, formulation bridging
- Type: in vivo, human
- condition_set: both sexes, human, in vivo, po, 5 mg, single oral dose 5 mg, capsule, fasted; read-out: T1/2 (converted)
measure: half-life (h)
Number in h, nothing else.

Reported half-life ( C=CC(=O)N1C[C@H](Nc2ncnc3[nH]cc([C@H]4CC4(F)F)c23)CC[C@@H]1C ) = 1.53

---

- method_notes: Phase 1 single ascending dose (SAD) study: pharmacokinetics, food effect, formulation bridging
- Type: in vivo, human
- condition_set: both sexes, human, in vivo, po, 15 mg, single oral dose 15 mg, capsule, fasted
measure: Cmax (ng/mL)
Write down the numeric answer in ng/mL and omit the unit.

For record C=CC(=O)N1C[C@H](Nc2ncnc3[nH]cc([C@H]4CC4(F)F)c23)CC[C@@H]1C [Compound I] the listed Cmax is 31.5

---

- method_notes: Phase 1 single ascending dose (SAD) study: pharmacokinetics, food effect, formulation bridging
- Type: in vivo, human
- condition_set: both sexes, human, in vivo, po, 80 mg, single oral dose 80 mg, capsule, fasted
- Protocol: Type of Study—This was an FIH, randomized, observer-blind, placebo-controlled study designed to evaluate the safety, tolerability, PK, and PD of Compound I in healthy subjects. The study consisted of: single ascending dose (SAD) cohorts (1-80 mg/day) plus formulation bridging and food effect (FE) cohorts. Approximately 64 male and female subjects were enrolled into 8 planned cohorts in the SAD study. […]
measure: Cmax
Provide a numeric answer, followed by its unit.

C=CC(=O)N1C[C@H](Nc2ncnc3[nH]cc([C@H]4CC4(F)F)c23)CC[C@@H]1C yielded Cmax of 196 ng/mL
